Tested on: HPAF-II;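 further: growth inhibition of HPAF-II cells, read out with a cell viability assay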
Assay: cells
Type: functional, cell-based
Settings: Homo sapiens
Description: SANGER: Inhibition of human HPAF-II cell growth in a cell viability assay.
readout-kind: IC50

The compound listed as N#C/C(=C1/Nc2ccccc2S1)c1ccnc(NCCc2cccnc2)n1 has a reported IC50 of > 8 µM

For CC[C@@]1(O)C(=O)OCc2c1cc1n(c2=O)Cc2cc3ccccc3nc2-1 [CAMPTOTHECIN] the compound record lists IC50 as 0.0551 µM

Record summary for Cn1cc(/C=C2\C(=O)Nc3cccnc32)c2ccccc21 : reported IC50 = > 2 µM

Note to self: IC50 recorded for CC(=O)c1c(C)c2cnc(Nc3ccc(N4CCNCC4)cn3)nc2n(C2CCCC2)c1=O [PALBOCICLIB] was > 4 µM

Query CC(C)=CC[C@@H](O)C1=CC(=O)c2c(O)ccc(O)c2C1=O [SHIKONIN] yields IC50 of 1.27 µM

// IC50 lookup, compound = NC(=O)c1ncn([C@@H]2O[C@H](COP(=O)(O)O)[C@@H](O)[C@H]2O)c1N , result: > 2000 µM

====

Test system: HCT-116
Test: cells
Format: functional, cell-based
Conditions: Homo sapiens
Description: SANGER: Inhibition of human HCT-116 cell growth in a cell viability assay.
pIC50: −log10 of the molar value.
Kindly supply the reported pIC50 values for the records listed here.

pIC50 reported for this compound CC(=O)c1c(C)c2cnc(Nc3ccc(N4CCNCC4)cn3)nc2n(C2CCCC2)c1=O : < 5.40

Record O=c1[nH]c2ccccc2n1C1CCN(Cc2ccc(-c3nc4cc5[nH]cnc5cc4nc3-c3ccccc3)cc2)CC1 . Reported pIC50: < 5.59

pIC50 reading for N#C/C(=C1/Nc2ccccc2S1)c1ccnc(NCCc2cccnc2)n1 : < 5.10

====

Test system: HMV-2 cell line
Experiment: cells
Type: functional, cell-based
Details: Homo sapiens
Description: SANGER: Inhibition of human HMV-II cell growth in a cell viability assay.
pIC50: −log10 of the molar value.
Could you please report measured pIC50 for the items listed next?

Considering CO[C@@]12[C@H](COC(N)=O)C3=C(C(=O)C(C)=C(N)C3=O)N1C[C@@H]1N[C@@H]12 , its pIC50 with HMV-2 cell line was recorded as 6.78

HMV-2 cell line data for O=c1[nH]c2ccccc2n1C1CCN(Cc2ccc(-c3nc4cc5[nH]cnc5cc4nc3-c3ccccc3)cc2)CC1 ; its pIC50: < 5.59

Given the compound C[C@]1(c2nc3c(C(N)=O)cccc3[nH]2)CCCN1 and test system HMV-2 cell line, the measured pIC50 is < 5.30

Field pIC50 (system: HMV-2 cell line) for entry CC[C@]1(O)C[C@@H]2CN(CCc3c([nH]c4ccccc34)[C@@](C(=O)OC)(c3cc4c(cc3OC)N(C)[C@H]3[C@@](O)(C(=O)OC)[C@H](OC(C)=O)[C@]5(CC)C=CCN6CC[C@]43[C@@H]65)C2)C1 = 8.41

pIC50 of Cn1cc(/C=C2\C(=O)Nc3cccnc32)c2ccccc21 , assay on HMV-2 cell line, is < 5.70

Known value: HMV-2 cell line pIC50 of the compound O=c1cc(N2CCOCC2)oc2c(-c3cccc4c3sc3ccccc34)cccc12 equals < 5.70

Record NC(=O)c1ncn([C@@H]2O[C@H](COP(=O)(O)O)[C@@H](O)[C@H]2O)c1N / HMV-2 cell line, pIC50 recorded as < 2.70

====

System: MKN-45;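 further: growth inhibition of human MKN-45 cells, measured with a cell viability assay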
Test: cells
Assay type: functional, cell-based
Conditions: Homo sapiens
Description: SANGER: Inhibition of human MKN45 cell growth in a cell viability assay.
readout-kind: IC50

response.value for C[C@]12O[C@H](C[C@]1(O)CO)n1c3ccccc3c3c4c(c5c6ccccc6n2c5c31)CNC4=O (field: IC50) = 1120 nM

Recorded result, CC[C@]1(O)C[C@@H]2CN(CCc3c([nH]c4ccccc34)[C@@](C(=O)OC)(c3cc4c(cc3OC)N(C)[C@H]3[C@@](O)(C(=O)OC)[C@H](OC(C)=O)[C@]5(CC)C=CCN6CC[C@]43[C@@H]65)C2)C1 , IC50: 48.4 nM

The reported IC50 of the compound C[C@]1(c2nc3c(C(N)=O)cccc3[nH]2)CCCN1 was > 5000 nM

Entry O=c1[nH]c2ccccc2n1C1CCN(Cc2ccc(-c3nc4cc5[nH]cnc5cc4nc3-c3ccccc3)cc2)CC1 ; IC50 = > 2560 nM

Short answer for O=c1cc(N2CCOCC2)oc2c(-c3cccc4c3sc3ccccc34)cccc12 : IC50 was > 2000 nM

Memo: Cn1cc(/C=C2\C(=O)Nc3cccnc32)c2ccccc21 , reported IC50: > 2000 nM
